melting point reference

COc1ccc(C(=O)N[C@@H](CNC(=O)C2CCN(C3CCN(C)CC3)CC2)c2ccccc2)cc1 = 252 to 259 °C
CCN1CCC(C(=O)NC[C@H](NC(=O)c2ccc(OC)cc2)c2ccccc2)CC1 = 245 to 251 °C
COc1ccc(C(=O)N[C@@H](CNC(=O)C2CCN(C3CCCCC3)CC2)c2ccccc2)cc1 = 239 to 243 °C

# context switch: different molecule, same melting point
Sure, the documented melting point for COc1ccc(C(=O)N[C@@H](CNC(=O)C2CCN(C3CCCC3)CC2)c2ccccc2)cc1 is 253 to 257 °C
